biological target: Ba/F3 stable cells (Homo sapiens, UniProt P00533, DUP771-773, cells depend on it); construct: EC50 Ba/F3-EGFR H773-V774insNPH; other: Ba/F3-EGFR H773-V774insNPH cells, 72 h, CCK-8; test: EC50 assay: Ba/F3 stable cell proliferation (CCK-8, 72 h); conditions: Ba/F3-EGFR H773-V774insNPH cells
Sequence (P00533 with tags, fused parts or gaps DUP771-773): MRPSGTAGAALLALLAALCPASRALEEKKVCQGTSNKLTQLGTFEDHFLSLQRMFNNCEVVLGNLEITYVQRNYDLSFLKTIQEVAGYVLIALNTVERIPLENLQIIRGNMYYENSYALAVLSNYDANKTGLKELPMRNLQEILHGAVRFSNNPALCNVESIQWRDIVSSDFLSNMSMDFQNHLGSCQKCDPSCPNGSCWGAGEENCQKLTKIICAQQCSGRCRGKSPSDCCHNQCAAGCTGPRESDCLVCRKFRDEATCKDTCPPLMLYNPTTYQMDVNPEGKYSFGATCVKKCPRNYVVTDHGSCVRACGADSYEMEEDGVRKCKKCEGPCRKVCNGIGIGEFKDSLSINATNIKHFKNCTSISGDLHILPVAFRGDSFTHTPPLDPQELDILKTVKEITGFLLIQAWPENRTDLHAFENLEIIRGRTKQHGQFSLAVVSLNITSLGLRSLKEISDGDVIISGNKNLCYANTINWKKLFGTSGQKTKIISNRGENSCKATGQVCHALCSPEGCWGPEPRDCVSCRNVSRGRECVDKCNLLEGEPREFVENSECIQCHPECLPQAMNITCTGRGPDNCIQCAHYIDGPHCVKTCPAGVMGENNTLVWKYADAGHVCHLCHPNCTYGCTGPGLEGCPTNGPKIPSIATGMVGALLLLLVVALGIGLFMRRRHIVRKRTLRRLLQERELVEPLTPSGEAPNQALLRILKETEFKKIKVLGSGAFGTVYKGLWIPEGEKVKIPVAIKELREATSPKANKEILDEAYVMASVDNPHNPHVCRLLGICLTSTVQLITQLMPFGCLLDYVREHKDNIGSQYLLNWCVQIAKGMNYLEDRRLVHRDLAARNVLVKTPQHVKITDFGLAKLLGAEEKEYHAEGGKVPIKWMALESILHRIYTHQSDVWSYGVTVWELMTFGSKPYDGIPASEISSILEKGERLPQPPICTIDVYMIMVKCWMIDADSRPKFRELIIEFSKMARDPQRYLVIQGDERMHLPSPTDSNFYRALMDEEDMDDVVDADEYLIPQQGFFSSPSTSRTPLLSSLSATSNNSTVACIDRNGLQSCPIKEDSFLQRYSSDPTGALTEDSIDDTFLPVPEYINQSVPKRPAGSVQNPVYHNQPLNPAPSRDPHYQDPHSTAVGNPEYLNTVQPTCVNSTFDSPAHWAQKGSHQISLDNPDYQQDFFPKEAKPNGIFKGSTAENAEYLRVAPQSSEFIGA
EC50 overview

{"Molecule": "C#CC(=O)N1CCC(Oc2cc3c(Nc4cccc5ccccc45)ncnc3cc2OC)CC1 [Compound 54]", "Target or system": "Ba/F3 stable cells (Homo sapiens, UniProt P00533, DUP771-773, cells depend on it)", "EC50": "≤ 200 nM"}
{"Molecule": "COc1cc2ncnc(Nc3ccc(Cl)c(Cl)c3F)c2cc1OC1CC(N(C)C#N)C1 (centres unmarked) [Compound 196]", "Target or system": "Ba/F3 stable cells (Homo sapiens, UniProt P00533, DUP771-773, cells depend on it)", "EC50": "200 to 1000 nM"}
{"Molecule": "C=CC(=O)N[C@H]1C[C@@H](Oc2cc3c(Nc4ccc(Cl)c(Cl)c4F)ncnc3cc2OC2COC2)C1 [Compound 104]", "Target or system": "Ba/F3 stable cells (Homo sapiens, UniProt P00533, DUP771-773, cells depend on it)", "EC50": "≤ 200 nM"}

## Input Identify measured EC50 corresponding to C=CC(=O)N1CCC(Oc2c(OC)cc3ncnc4c3c2C=CN4c2ccc(Cl)c(Cl)c2F)CC1 [Compound 218]
## Output ≤ 200 nM

## Input Identify measured EC50 corresponding to C=CC(=O)N1CCC(Oc2cc3c(Nc4cnc5ccccc5c4)ncnc3cc2OC)CC1 [Compound 135]
## Output 200 to 1000 nM

====

target: Ba/F3 stable cells (Homo sapiens, UniProt P00533, T790M/L858R, cells depend on it); construct: EC50 Ba/F3-EGFR L858R-T790M; other: Ba/F3-EGFR L858R-T790M cells, 72 h, CCK-8; experiment: EC50 assay: Ba/F3 stable cell proliferation (CCK-8, 72 h); conditions: Ba/F3-EGFR L858R-T790M cells
Sequence (P00533 whole entry T790M/L858R): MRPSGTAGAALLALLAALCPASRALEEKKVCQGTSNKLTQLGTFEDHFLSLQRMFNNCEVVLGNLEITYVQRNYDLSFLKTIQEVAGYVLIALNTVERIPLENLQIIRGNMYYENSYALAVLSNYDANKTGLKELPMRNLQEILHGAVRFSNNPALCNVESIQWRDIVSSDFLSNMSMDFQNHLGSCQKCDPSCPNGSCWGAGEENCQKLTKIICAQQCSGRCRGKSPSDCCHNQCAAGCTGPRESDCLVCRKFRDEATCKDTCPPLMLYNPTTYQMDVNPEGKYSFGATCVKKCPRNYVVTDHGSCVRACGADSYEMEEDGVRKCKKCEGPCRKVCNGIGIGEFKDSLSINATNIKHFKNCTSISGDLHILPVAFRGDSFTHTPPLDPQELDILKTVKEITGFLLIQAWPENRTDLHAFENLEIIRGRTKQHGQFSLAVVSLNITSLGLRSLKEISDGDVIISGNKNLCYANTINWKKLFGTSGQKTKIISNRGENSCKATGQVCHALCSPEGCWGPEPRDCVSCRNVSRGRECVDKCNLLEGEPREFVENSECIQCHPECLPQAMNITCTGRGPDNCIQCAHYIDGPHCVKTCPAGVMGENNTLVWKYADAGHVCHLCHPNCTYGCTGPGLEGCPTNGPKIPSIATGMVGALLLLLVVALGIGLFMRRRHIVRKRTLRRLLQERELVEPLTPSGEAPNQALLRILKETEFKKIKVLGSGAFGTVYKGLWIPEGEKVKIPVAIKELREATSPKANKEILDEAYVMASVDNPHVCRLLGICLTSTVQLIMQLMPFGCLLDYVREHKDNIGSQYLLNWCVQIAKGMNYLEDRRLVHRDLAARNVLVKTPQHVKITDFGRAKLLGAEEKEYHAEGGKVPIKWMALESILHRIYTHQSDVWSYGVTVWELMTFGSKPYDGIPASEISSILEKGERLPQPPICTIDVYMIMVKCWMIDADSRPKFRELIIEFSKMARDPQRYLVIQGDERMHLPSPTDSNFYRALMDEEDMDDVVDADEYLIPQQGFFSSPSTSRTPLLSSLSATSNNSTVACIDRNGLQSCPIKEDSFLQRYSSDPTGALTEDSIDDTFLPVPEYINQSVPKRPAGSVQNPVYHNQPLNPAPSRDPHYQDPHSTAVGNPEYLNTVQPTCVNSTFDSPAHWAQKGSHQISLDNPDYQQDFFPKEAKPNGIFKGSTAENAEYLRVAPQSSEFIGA
pEC50: −log10 of the molar value.
Property measured: pEC50

{"Compound": "C=CC(=O)N1CC(c2cc3c(Nc4ccc(Cl)c(Cl)c4F)ncnc3cc2OC2COC2)C1", "Target or system": "Ba/F3 stable cells (Homo sapiens, UniProt P00533, T790M/L858R, cells depend on it)", "Property measured": "pEC50", "Obs value": "≥ 6.70"}
{"Compound": "C#CC(=O)N1C2CCC1CC(Oc1cc3c(Nc4cccc5c4CCC5)ncnc3cc1OC)C2 (stereo not drawn)", "Target or system": "Ba/F3 stable cells (Homo sapiens, UniProt P00533, T790M/L858R, cells depend on it)", "Property measured": "pEC50", "Obs value": "6.00 to 6.70"}
{"Compound": "C=CC(=O)NC1CC(Oc2cc3c(Nc4cccc5ccccc45)ncnc3cc2OC)C1 (stereo not drawn)", "Target or system": "Ba/F3 stable cells (Homo sapiens, UniProt P00533, T790M/L858R, cells depend on it)", "Property measured": "pEC50", "Obs value": "6.00 to 6.70"}
{"Compound": "C=CC(=O)N[C@H]1C[C@@H](Oc2cc3c(C(=O)N[C@H](C)c4ccc(F)cc4)ncnc3cc2OC)C1", "Target or system": "Ba/F3 stable cells (Homo sapiens, UniProt P00533, T790M/L858R, cells depend on it)", "Property measured": "pEC50", "Obs value": "< 6.00"}

Pending compound:
## Input Identify measured pEC50 corresponding to C=CC(=O)N1CCC(Oc2cc3c(NC(C(=O)O)c4cccc(Cl)c4)ncnc3cc2OC)CC1 (stereo not drawn)
## Output < 6.00

====

target: Ba/F3 stable cells (Homo sapiens, UniProt P00533, DUP771-773, cells depend on it); construct: EC50 Ba/F3-EGFR H773-V774insNPH; other: Ba/F3-EGFR H773-V774insNPH cells, 72 h, CCK-8; assay: EC50 assay: Ba/F3 stable cell proliferation (CCK-8, 72 h); settings: Ba/F3-EGFR H773-V774insNPH cells
Property measured: EC50

Sample records with EC50:
{"Compound": "C=CC(=O)NC1CC(Oc2cc3c(Nc4cccc5c4CCC5)ncnc3cc2OC)C1 (centres unmarked)", "Target or system": "Ba/F3 stable cells (Homo sapiens, UniProt P00533, DUP771-773, cells depend on it)", "Property measured": "EC50", "Obs value": "> 1 µM"}
{"Compound": "C=CC(=O)N1CCC(Oc2cc3c(NCc4cccc(C#N)c4)ncnc3cc2OC)CC1", "Target or system": "Ba/F3 stable cells (Homo sapiens, UniProt P00533, DUP771-773, cells depend on it)", "Property measured": "EC50", "Obs value": "> 1 µM"}
{"Compound": "C#CC(=O)N[C@H]1C[C@@H](Oc2cc3c(Nc4cccc5ccccc45)ncnc3cc2OC)C1", "Target or system": "Ba/F3 stable cells (Homo sapiens, UniProt P00533, DUP771-773, cells depend on it)", "Property measured": "EC50", "Obs value": "≤ 0.2 µM"}
{"Compound": "C=CC(=O)N[C@H]1C[C@H](Oc2cc3c(Nc4ccc(C#N)c(Cl)c4)ncnc3cc2OC)C1", "Target or system": "Ba/F3 stable cells (Homo sapiens, UniProt P00533, DUP771-773, cells depend on it)", "Property measured": "EC50", "Obs value": "> 1 µM"}
{"Compound": "C=CC(=O)N1CCC(c2ccc3ncnc(Nc4ccc(Cl)c(Cl)c4F)c3c2)CC1", "Target or system": "Ba/F3 stable cells (Homo sapiens, UniProt P00533, DUP771-773, cells depend on it)", "Property measured": "EC50", "Obs value": "> 1 µM"}
{"Compound": "C=CC(=O)N1CC(c2cc3c(Nc4ccc(Cl)c(Cl)c4F)ncnc3cc2O[C@H]2CCOC2)C1", "Target or system": "Ba/F3 stable cells (Homo sapiens, UniProt P00533, DUP771-773, cells depend on it)", "Property measured": "EC50", "Obs value": "> 1 µM"}

## Input Identify measured EC50 corresponding to C#CC(=O)N[C@H]1C[C@H](Oc2cc3c(Nc4ccc5ccccc5c4)ncnc3cc2OC)C1
## Output 0.2 to 1 µM

## Input Identify measured EC50 corresponding to C=CC(=O)N1CCC(c2cc3c(Nc4ccc(Cl)c(Cl)c4F)ncnc3cc2OC)CC1
## Output 0.2 to 1 µM

====

target: Ba/F3 stable cells (Homo sapiens, UniProt P00533, DUP767-769, cells depend on it); construct: EC50 Ba/F3-EGFR V769-D770insASV; other: Ba/F3-EGFR V769-D770insASV cells, 72 h, CCK-8; test: EC50 assay: Ba/F3 stable cell proliferation (CCK-8, 72 h); details: Ba/F3-EGFR V769-D770insASV cells
Sequence (P00533 with tags, fused parts or gaps DUP767-769): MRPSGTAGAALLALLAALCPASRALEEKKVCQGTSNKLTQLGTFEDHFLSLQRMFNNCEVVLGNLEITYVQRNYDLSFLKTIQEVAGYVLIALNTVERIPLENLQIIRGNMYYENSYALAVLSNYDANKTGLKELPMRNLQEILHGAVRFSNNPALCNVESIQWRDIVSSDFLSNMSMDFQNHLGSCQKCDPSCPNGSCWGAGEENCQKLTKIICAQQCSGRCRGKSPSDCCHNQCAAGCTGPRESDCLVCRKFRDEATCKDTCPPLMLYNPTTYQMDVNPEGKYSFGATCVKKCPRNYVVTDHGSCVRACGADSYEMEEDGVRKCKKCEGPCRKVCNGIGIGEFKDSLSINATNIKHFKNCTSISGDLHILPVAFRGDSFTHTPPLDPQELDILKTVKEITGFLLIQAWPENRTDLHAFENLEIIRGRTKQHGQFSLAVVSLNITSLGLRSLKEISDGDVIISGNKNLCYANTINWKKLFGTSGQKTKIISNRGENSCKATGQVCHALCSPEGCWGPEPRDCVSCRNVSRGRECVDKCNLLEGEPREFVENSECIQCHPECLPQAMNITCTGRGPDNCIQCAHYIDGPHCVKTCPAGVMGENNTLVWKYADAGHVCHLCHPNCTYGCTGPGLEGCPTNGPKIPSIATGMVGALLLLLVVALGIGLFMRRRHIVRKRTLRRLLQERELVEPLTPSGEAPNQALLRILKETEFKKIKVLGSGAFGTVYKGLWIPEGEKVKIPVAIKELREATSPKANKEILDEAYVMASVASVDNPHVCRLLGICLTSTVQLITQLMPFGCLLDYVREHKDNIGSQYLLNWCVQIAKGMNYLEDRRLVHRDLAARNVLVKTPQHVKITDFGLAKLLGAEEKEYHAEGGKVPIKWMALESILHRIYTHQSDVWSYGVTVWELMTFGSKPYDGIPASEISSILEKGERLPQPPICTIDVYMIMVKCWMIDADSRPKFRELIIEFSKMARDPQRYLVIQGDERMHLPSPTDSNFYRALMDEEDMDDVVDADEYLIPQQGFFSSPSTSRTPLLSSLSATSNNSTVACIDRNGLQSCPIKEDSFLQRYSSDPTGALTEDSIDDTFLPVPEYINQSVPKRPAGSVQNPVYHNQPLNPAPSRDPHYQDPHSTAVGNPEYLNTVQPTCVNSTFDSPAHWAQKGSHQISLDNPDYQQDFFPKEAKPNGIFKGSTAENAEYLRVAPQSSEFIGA
EC50 overview

Sample records with EC50:
{"Compound": "C=CS(=O)(=O)N1CCC(Oc2cc3c(Nc4ccc(Cl)c(Cl)c4F)ncnc3cc2OC)CC1", "Property measured": "EC50", "Obs value": "≤ 200 nM"}
{"Compound": "C=CC(=O)N(C)C1CC(Oc2cc3c(Nc4ccc(Cl)c(Cl)c4F)ncnc3cc2OC)C1 (stereo not shown)", "Property measured": "EC50", "Obs value": "≤ 200 nM"}
{"Compound": "[2H]C([2H])([2H])Oc1cc2ncnc(Nc3ccc(Cl)c(Cl)c3F)c2cc1C1CN(C(=O)C(=C)F)C1", "Property measured": "EC50", "Obs value": "200 to 1000 nM"}

## Input Check Ba/F3 stable cells (Homo sapiens, UniProt P00533, DUP767-769, cells depend on it) data and give EC50 for C=CC(=O)N1CC(c2cc3c(Nc4ccc5[nH]ccc5c4)ncnc3cc2OC)C1 .
## Output ≤ 200 nM

## Input Check Ba/F3 stable cells (Homo sapiens, UniProt P00533, DUP767-769, cells depend on it) data and give EC50 for C=CC(=O)N[C@H]1C[C@H](Oc2cc3c(Nc4ccccc4F)ncnc3cc2OC)C1 .
## Output 200 to 1000 nM

## Input Check Ba/F3 stable cells (Homo sapiens, UniProt P00533, DUP767-769, cells depend on it) data and give EC50 for C=CC(=O)N1CCC(Oc2cc3c(NCc4ccc(F)c(Cl)c4)ncnc3cc2OC)CC1 .
## Output 200 to 1000 nM

====

pEC50 overview
biological target: Ba/F3 stable cells (Homo sapiens, UniProt P00533, T790M/L858R, cells depend on it); construct: EC50 Ba/F3-EGFR L858R-T790M; other: Ba/F3-EGFR L858R-T790M cells, 72 h, CCK-8; experiment: EC50 assay: Ba/F3 stable cell proliferation (CCK-8, 72 h); settings: Ba/F3-EGFR L858R-T790M cells
pEC50: −log10 of the molar value.

Sample records with pEC50:
{"Compound": "C=CC(=O)N1CCC(Oc2cc3c(NCc4cccc(Cl)c4F)ncnc3cc2OC)CC1 [Compound 116]", "Obs value": "6.00 to 6.70"}
{"Compound": "C=CC(=O)N1CC(c2cc3c(Nc4ccc5c(c4)CCN5)ncnc3cc2OC)C1 [Compound 12]", "Obs value": "< 6.00"}
{"Compound": "C=CC(=O)N1CCC(Oc2cc3c(Nc4cc5ccccc5cn4)ncnc3cc2OC)CC1 [Compound 159]", "Obs value": "6.00 to 6.70"}
{"Compound": "C=CC(=O)N1CC(c2cc3c(Nc4ccc(Cl)c(Cl)c4F)ncnc3cc2OCCN2CCOCC2)C1 [Compound 28]", "Obs value": "6.00 to 6.70"}
{"Compound": "C=CS(=O)(=O)N1CCC(Oc2cc3c(C(=O)c4ccc(Cl)c(Cl)c4F)ncnc3cc2OC)CC1 [Compound 193]", "Obs value": "6.00 to 6.70"}
{"Compound": "C#CC(=O)N[C@H]1C[C@@H](Oc2cc3c(Nc4cccc5c4CCC5)ncnc3cc2OC)C1 [Compound 45]", "Obs value": "< 6.00"}
{"Compound": "C=CC(=O)N1CCC(Oc2cc3c(Nc4nccc5ccccc45)ncnc3cc2OC)CC1 [Compound 161]", "Obs value": "6.00 to 6.70"}

Pending compound:
## Input Identify measured pEC50 corresponding to C=CC(=O)N1CC(c2cc3c(Nc4ccc(F)c(Cl)c4F)ncnc3cc2O[C@H]2CCOC2)C1 [Compound 33]
## Output ≥ 6.70
